FYI, the data here is from patent US20260374766A1.

Target: p53 Y220C mutant protein (amino acid residues 94-293) (Homo sapiens, UniProt P04637, Y220C)
Construct: p53 Y220C mutant protein (amino acid residues 94-293)
Assay: Thermal Shift Assay (TSA), dTM
Type: binding
Conditions: thermal shift, 100 uM compound; read-out: TSA P53 Y220C dTM (100 uM)
Experimental: Thermal Shift Assay (TSA) Protocol 5 μM recombinant p53 Y220C mutant protein (amino acid residues 94-293) was incubated with 10 μM or 100 μM compound for 3 hours at 20 °C in buffer containing 20 mM HEPES, pH7.4, 100 mM NaCl, 0.01% Pluronic F-127, and 1% DMSO in the presence of 400-fold diluted Sypro Orange (ThermoFisher Scientific catalog number 4461146), on a 384-well PCR plate (Applied Biosystems catalog number 4483285). The volume was 5 μL/well. […]
Each record here notes measured ΔTm at 100 µM.

Chemical String | ΔTm at 100 µM
COc1cc(S(C)(=O)=O)ccc1NCC#Cc1nc2c(NC3CC4(C3)CN(C)C4)cccn2c1CC(F)(F)F | ≥ 10 °C
CNC(=O)c1ccc(OC)c(NCC#Cc2nc3c(N[C@@H]4CCN(C)C[C@@H]4F)cccn3c2SC(F)(F)F)n1 | ≥ 10 °C
CCc1cc(C(=O)NC)ccc1NCC#Cc1nc2c(N[C@@H]3CCN(C)C[C@@H]3F)cccn2c1CC(F)(F)F | 5 to 10 °C

Q: Which ΔTm at 100 µM is reported for this compound? "CNC(=O)c1cc(NCC#Cc2nc3c(N[C@@H]4CCN(C)C[C@@H]4F)cccn3c2SC(F)(F)F)c(OC)cn1"
Ans: ≥ 10 °C

* * *

Entries and their Emax
biological target: p53 Y220C (Homo sapiens, UniProt P04637, Y220C); assay: Luciferase Reporter Assay (Luc), p53 response element, NClH1299 cells with inducible p53 Y220C; assay type: cell-based; conditions: Emax; luciferase reporter, NClH1299 inducible p53 Y220C, 6 hour

Use the examples below as a reference point.
Chemical String | Assay Target | Test Result
CNC(=O)c1ccc(OC)c(NCC#Cc2nn3c(N[C@@H]4CCNC[C@@H]4F)cccc3c2SC(F)(F)F)c1 | p53 Y220C (Homo sapiens, UniProt P04637, Y220C) | 80 to 90%
COc1cc([S@@+](C)[O-])ccc1NCC#Cc1cc2c(N[C@@H]3CCN(C)C[C@@H]3F)cccn2c1SC(F)(F)F | p53 Y220C (Homo sapiens, UniProt P04637, Y220C) | > 90%
CNC(=O)c1cnc(OC)c(NCC#Cc2cc3c(N[C@@H]4CCNC[C@@H]4F)nccn3c2SC(F)(F)F)c1 | p53 Y220C (Homo sapiens, UniProt P04637, Y220C) | > 90%
CN1CC[C@@H](Nc2cccn3c(SC(F)(F)F)c(C#CCNc4ccc(P(C)(C)=O)c5ccoc45)cc23)[C@@H](F)C1 | p53 Y220C (Homo sapiens, UniProt P04637, Y220C) | > 90%

Q: May I ask what Emax has been recorded for "CNC(=O)c1ccc(NCC#Cc2nn3c(N[C@@H]4CCN(C)C[C@@H]4F)cccc3c2SC(F)(F)F)c(OC)c1" ?
Ans: 80 to 90%

Q: What Emax value was documented for this compound, "CNC(=O)c1cc(F)c(OC)c(NCC#Cc2cc3c(N[C@@H]4CCN(C)C[C@@H]4F)nccn3c2SC(F)(F)F)c1" ?
Ans: > 90%

Q: What measured Emax goes with "CCNC(=O)c1ccc(OC)c(NCC#Cc2cc3c(N[C@@H]4CCN(C)C[C@@H]4F)nccn3c2SC(F)(F)F)c1" ?
Ans: > 90%
